Source of measurements: paper PMC12750381

- assay-target: HIV-1 wild-type protease (Human immunodeficiency virus type 1 group M subtype B, UniProt P04585)
- assay-explanation: Fluorometric HIV-1 protease assay (SensoLyte 520 HIV Protease Assay Kit)
- Type: biochemical
- protocol-conditions: at 1 μM, 100 nM and 10 nM; result in words

# compound, enzyme inhibition (relative activity)
records = [
    ("NC(=O)[C@H](Cc1ccccc1)NC(=O)C(Cc1ccccc1)CP(=O)(O)CC(Cc1ccccc1)C(=O)N[C@@H](Cc1ccccc1)C(N)=O (some centres unmarked) [Compound 9e]", "only weak inhibition"),
    ("C[C@H](NC(=O)C(Cc1ccccc1)CP(=O)(O)CC(Cc1ccccc1)C(=O)N[C@@H](C)C(N)=O)C(N)=O (some centres unmarked) [Compound 9b]", "only weak inhibition"),
]
